Kindly state T/K (Tumor/Kidney ratio) for each of the entries shown.
test system: NCI-H460 tumor-bearing mice (lung cancer); assay: Biodistribution: lutetium accumulation in tumor, plasma and healthy tissues by ICP-MS; format: in vivo; conditions: 24 h
Field format: numeric only.

For NCI-H460 tumor-bearing mice (lung cancer), give T/K (Tumor/Kidney ratio) of the listed molecule: CCNC(=O)c1nnc(-c2cc(C(C)C)c(O)cc2O)n1-c1ccc(CN2CCN(C(=O)CCNC(=O)[C@@H](CCC(=O)O)NC(=O)[C@@H](CCC(=O)O)NC(=O)[C@@H](CCC(=O)O)NC(=O)COCCOCCNC(=O)CCCCn3cc(CN(CCCNC(=O)CC[C@H](C(=O)O)N4CCN5CCN6CC(=O)[O][Lu]([O]C(=O)C5)[C]5(C6)OC(=O)CN5CC4)C(=O)CCCNC(=O)CCCc4ccc(I)cc4)nn3)CC2)cc1 (some centres unmarked) [CMP51]
0.7

For NCI-H460 tumor-bearing mice (lung cancer), give T/K (Tumor/Kidney ratio) of the listed molecule: CCNC(=O)c1nnc(-c2cc(C(C)C)c(O)cc2O)n1-c1ccc(OC2CCN(C(=O)CCOCCOCCOCCOCCNC(=O)CC[C@@H](C(=O)O)N(CC)CCN3CCN4CCN(C)CC(=O)[O][Lu]([O]C(=O)C4)[O]C(=O)C3)CC2)cc1 [CMP2]
2.12

For NCI-H460 tumor-bearing mice (lung cancer), give T/K (Tumor/Kidney ratio) of the listed molecule: CCNC(=O)c1nnc(-c2cc(C(C)C)c(O)cc2O)n1-c1ccc(OC2CCN(C(=O)CCOCCOCCOCCOCCNC(=O)CN3CCN4CCN5CCN(CC3)CC(=O)[O][Lu]([O]C(=O)C4)[O]C(=O)C5)CC2)cc1 [CMP39]
3.63

For NCI-H460 tumor-bearing mice (lung cancer), give T/K (Tumor/Kidney ratio) of the listed molecule: CCNC(=O)c1nnc(-c2cc(C(C)C)c(O)cc2O)n1-c1ccc(CN2CCN(C(=O)CCOCCOCCOCCOCCNC(=O)CN3CCN4CCN5CCN6CC(=O)O[C]6(C3)[Lu]([O]C(=O)C4)[O]C(=O)C5)CC2)cc1 (centres unmarked) [CMP1]
1.28

For NCI-H460 tumor-bearing mice (lung cancer), give T/K (Tumor/Kidney ratio) of the listed molecule: CCNC(=O)c1nnc(-c2cc(C(C)C)c(O)cc2O)n1-c1ccc(OC2CCN(C(=O)CCOCCOCCOCCOCCOCCOCCOCCOCCOCCOCCOCCOCCNC(=O)CN3CCN4CCN5CCN(CC3)CC(=O)[O][Lu]([O]C(=O)C4)[O]C(=O)C5)CC2)cc1 [CMP41]
5.10

For NCI-H460 tumor-bearing mice (lung cancer), give T/K (Tumor/Kidney ratio) of the listed molecule: CCNC(=O)c1nnc(-c2cc(C(C)C)c(O)cc2O)n1-c1ccc(OC2CCN(C(=O)CCOCCOCCOCCOCCOCCOCCOCCOCCOCCOCCOCCOCCNC(=O)[C@H](CCCCNC(=O)CCCc3ccc(I)cc3)NC(=O)CN3CCN4CCN5CCN(CC3)CC(=O)[O][Lu]([O]C(=O)C4)[O]C(=O)C5)CC2)cc1 [CMP5]
3.05

For NCI-H460 tumor-bearing mice (lung cancer), give T/K (Tumor/Kidney ratio) of the listed molecule: CCNC(=O)c1nnc(-c2cc(C(C)C)c(O)cc2O)n1-c1ccc(C2CN(C(=O)CCOCCOCCOCCOCCNC(=O)CN3CCN4CCN5CCN(CC3)CC(=O)[O][Lu]([O]C(=O)C4)[O]C(=O)C5)C2)cc1 [CMP29]
2.19

For NCI-H460 tumor-bearing mice (lung cancer), give T/K (Tumor/Kidney ratio) of the listed molecule: CC(C)c1cc(-c2nnc(O)n2-c2ccc(OC3CCN(C(=O)CCOCCOCCOCCOCCNC(=O)CN4CCN5CCN6CCN(CC4)CC(=O)[O][Lu]([O]C(=O)C5)[O]C(=O)C6)CC3)cc2)c(O)cc1O [CMP40]
5.08

Source of measurements: patent US20260166158A1
